# system: hCB1R (Homo sapiens, UniProt P21554)
# Sequence (P21554 whole entry): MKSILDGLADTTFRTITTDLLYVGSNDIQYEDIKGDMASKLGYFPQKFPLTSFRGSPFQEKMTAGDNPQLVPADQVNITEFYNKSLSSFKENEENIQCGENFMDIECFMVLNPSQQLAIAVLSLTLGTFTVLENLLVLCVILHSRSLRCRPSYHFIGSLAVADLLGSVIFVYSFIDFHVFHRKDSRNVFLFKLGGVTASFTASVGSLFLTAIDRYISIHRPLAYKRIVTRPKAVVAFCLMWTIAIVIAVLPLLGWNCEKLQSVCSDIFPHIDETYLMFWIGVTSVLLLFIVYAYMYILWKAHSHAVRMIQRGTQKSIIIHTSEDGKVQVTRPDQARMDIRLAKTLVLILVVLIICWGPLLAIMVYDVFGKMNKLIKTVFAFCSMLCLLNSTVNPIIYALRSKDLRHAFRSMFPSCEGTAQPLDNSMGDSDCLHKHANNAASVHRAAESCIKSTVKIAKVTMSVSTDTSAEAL
# run description: HTRF cAMP assay, agonist / inverse agonist mode
# Assay type: cell-based
# Set-up: expressed in transfected cells; host or cells: CHO
# experimental conditions: read-out: Functional activity (cAMP assay) IC50
assay metric: IC50 (nM)
State just the number; it will be interpreted in nM.

Query: Which IC50 is listed for CCC(CC)(NC(=O)c1cc(-c2cc(C(F)(F)F)ccc2C(F)(F)F)n(C[C@H]2CCCO2)c1C)C(=O)NCCOCCOCCNC(=O)OC(C)(C)C [Compound 22b] ?
Response: 131

====

# system: hCB1R (Homo sapiens, UniProt P21554)
# run description: [3H]CP55,940 displacement assay on CHO membranes, CB1R
# Format: binding
# Design: host or cells: CHO-K1 (CHOK1hCB1_bgal)
# experimental conditions: [3H]CP55,940 displacement, CHO membranes stably expressing human CB1R; means of three experiments; read-out: hCB1R Ki
assay metric: Ki

compound="CCC(CC)(NC(=O)c1cc(-c2cc(C(F)(F)F)ccc2C(F)(F)F)n(C[C@H]2CCCO2)c1C)C(=O)NCCOCCOCCOCCNC(=O)OC(C)(C)C [Compound 22c]" system="hCB1R (Homo sapiens, UniProt P21554)" result_value="1.22 µM"
compound="CCC(CC)(NC(=O)c1cc(-c2cc(C(F)(F)F)ccc2C(F)(F)F)n(C[C@H]2CCCO2)c1C)C(=O)NCCOCCOCCNC(=O)OC(C)(C)C [Compound 22b]" system="hCB1R (Homo sapiens, UniProt P21554)" result_value="0.811 µM"

Read the next record carefully.
Query: Which Ki is listed for CCC(CC)(NC(=O)c1cc(-c2cc(C(F)(F)F)ccc2C(F)(F)F)n(C[C@H]2CCCO2)c1C)C(=O)NCCOCCOCCNc1ccc([N+](=O)[O-])c2n[nH]nc12 ?
Response: 0.225 µM

====

Attribute: Emax
# system: hCB1R (Homo sapiens)
# run description: HTRF cAMP assay, agonist / inverse agonist mode
# Assay type: cell-based
# Design: expressed in transfected cells; host or cells: CHO
State just the number; it will be interpreted in %.

Worked examples follow.
compound="CCOC(=O)C(CC)(CC)NC(=O)c1nn(Cc2cccc(F)c2)c2ccccc12 [Compound 19]" unit_abbrev=% result_value=93
compound="CCC(CC)(NC(=O)c1nn(-c2ccc(Cl)cc2Cl)c(-c2ccc(Cl)cc2)c1C)C(=O)NCCOCCOCCNc1ccc([N+](=O)[O-])c2nonc12 [Compound 30]" unit_abbrev=% result_value=-41
compound="CCOC(=O)C(CC)(CC)NC(=O)c1cnc(OCC2CC2)c(-c2ccc(F)cc2)c1 [Compound 17]" unit_abbrev=% result_value=-48
compound="CCOC(=O)C(CC)(CC)NC(=O)c1nn(-c2ccc(Cl)cc2Cl)c(-c2ccc(Cl)cc2)c1C [Compound 15]" unit_abbrev=% result_value=-42
compound="CCOC(=O)C(CC)(CC)NC(=O)c1cc(-c2cc(C(F)(F)F)ccc2C(F)(F)F)n(C[C@H]2CCCO2)c1C [Compound 14]" unit_abbrev=% result_value=-46
compound="CCC(CC)(NC(=O)c1cc(-c2cc(C(F)(F)F)ccc2C(F)(F)F)n(C[C@H]2CCCO2)c1C)C(=O)NCCOCCOCCNc1ccc([N+](=O)[O-])c2nonc12 [Compound 28]" unit_abbrev=% result_value=-62

Read the next record carefully.
Query: Give Emax (hCB1R (Homo sapiens)) of the following compound: CCOC(=O)C(CC)(CC)NC(=O)c1cnc(OCCOC)c(-c2ccc(Cl)cc2)n1 [Compound 18]
Response: -41

====

# system: hCB1R (Homo sapiens)
# run description: HTRF cAMP assay, agonist / inverse agonist mode
# Format: cell-based
# Parameters: expressed in transfected cells; host or cells: CHO
# experimental conditions: CB1R cAMP HTRF assay
assay metric: Functional activity at CB1R (in words)

Worked examples follow.
compound="CCC(CC)(NC(=O)c1cc(-c2cc(C(F)(F)F)ccc2C(F)(F)F)n(C[C@H]2CCCO2)c1C)C(=O)NCCOCCOCCNc1ccc([N+](=O)[O-])c2nonc12 [Compound 28]" assay_metric="Functional activity at CB1R (in words)" result_value="inverse agonists"
compound="CCC(CC)(NC(=O)c1nn(-c2ccc(Cl)cc2Cl)c(-c2ccc(Cl)cc2)c1C)C(=O)NCCOCCOCCNC(=O)OC(C)(C)C [Compound 23b]" assay_metric="Functional activity at CB1R (in words)" result_value="inverse agonist"
compound="CCOC(=O)C(CC)(CC)NC(=O)c1nn(-c2ccc(Cl)cc2Cl)c(-c2ccc(Cl)cc2)c1C [Compound 15]" assay_metric="Functional activity at CB1R (in words)" result_value="inverse agonists"
compound="CCC(CC)(NC(=O)c1cc(-c2cc(C(F)(F)F)ccc2C(F)(F)F)n(C[C@H]2CCCO2)c1C)C(=O)NCCOCCOCCNC(=O)c1ccc2c(c1)C(=O)OC21c2ccc(N(C)C)cc2Oc2cc(N(C)C)ccc21 [Compound 29]" assay_metric="Functional activity at CB1R (in words)" result_value="inverse agonists"
compound="CCOC(=O)C(CC)(CC)NC(=O)c1cc(-c2cc(C(F)(F)F)ccc2C(F)(F)F)n(C[C@H]2CCCO2)c1C [Compound 14]" assay_metric="Functional activity at CB1R (in words)" result_value="inverse agonists"

Query: Which Functional activity at CB1R (in words) is listed for CCOC(=O)C(CC)(CC)NC(=O)c1cnc(OCCOC)c(-c2ccc(Cl)cc2)n1 [Compound 18] ?
Response: inverse agonists

Query: Which Functional activity at CB1R (in words) is listed for CCOC(=O)C(CC)(CC)NC(=O)c1cnc(OCC2CC2)c(-c2ccc(F)cc2)c1 [Compound 17] ?
Response: inverse agonists

Query: Which Functional activity at CB1R (in words) is listed for CCC(CC)(NC(=O)c1cc(-c2cc(C(F)(F)F)ccc2C(F)(F)F)n(C[C@H]2CCCO2)c1C)C(=O)NCCOCCOCCNC(=O)OC(C)(C)C [Compound 22b] ?
Response: inverse agonist

====

# system: human CB2R (Homo sapiens)
# Construct: host or cells: CHO-K1 (CHOK1hCB2_bgal)
# Sequence (P34972 whole entry): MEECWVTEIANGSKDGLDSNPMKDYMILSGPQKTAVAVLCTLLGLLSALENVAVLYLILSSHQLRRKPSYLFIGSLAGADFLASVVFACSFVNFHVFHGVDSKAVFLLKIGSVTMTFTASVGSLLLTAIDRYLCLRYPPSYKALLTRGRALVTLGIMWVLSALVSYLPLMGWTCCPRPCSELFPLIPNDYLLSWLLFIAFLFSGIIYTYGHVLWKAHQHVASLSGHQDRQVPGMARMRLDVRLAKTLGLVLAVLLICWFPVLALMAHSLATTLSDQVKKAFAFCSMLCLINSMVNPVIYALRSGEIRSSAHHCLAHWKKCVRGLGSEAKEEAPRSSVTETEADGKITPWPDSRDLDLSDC
# run description: [3H]CP55,940 displacement assay on CHO membranes, CB2R
# Type: binding
# experimental conditions: hCB2R Ki, [3H]CP55,940 displacement, CHO membranes stably expressing human CB2R; means of three experiments
pKi: −log10 of the molar value.
Classification field: t = pKi at or over 7; f = pKi under 7.

Use these answered entries as a reference point.
compound="CCC(CC)(NC(=O)c1nn(-c2ccc(Cl)cc2Cl)c(-c2ccc(Cl)cc2)c1C)C(=O)NCCOCCOCCOCCOCCNC(=O)OC(C)(C)C [Compound 23d]" class_assignment=f
compound="CCC(CC)(NC(=O)c1nn(-c2ccc(Cl)cc2Cl)c(-c2ccc(Cl)cc2)c1C)C(=O)NCCOCCOCCNc1ccc([N+](=O)[O-])c2nonc12 [Compound 30]" class_assignment=f

Query: Check if pKi >= 7 (inclusive). Item: CCC(CC)(NC(=O)c1nn(-c2ccc(Cl)cc2Cl)c(-c2ccc(Cl)cc2)c1C)C(=O)NCCOCCOCCOCCNC(=O)OC(C)(C)C [Compound 23c]
Response: f

Query: Check if pKi >= 7 (inclusive). Item: CCOC(=O)C(CC)(CC)NC(=O)c1cnc(OCC2CC2)c(-c2ccc(F)cc2)c1 [Compound 17]
Response: t

Query: Check if pKi >= 7 (inclusive). Item: CCOC(=O)C(CC)(CC)NC(=O)c1nn(-c2ccc(Cl)cc2Cl)c(-c2ccc(Cl)cc2)c1C [Compound 15]
Response: t

Query: Check if pKi >= 7 (inclusive). Item: CCOC(=O)C(CC)(CC)NC(=O)c1nn(Cc2cccc(F)c2)c2ccccc12 [Compound 19]
Response: t

Query: Check if pKi >= 7 (inclusive). Item: CCC(CC)(NC(=O)c1nn(-c2ccc(Cl)cc2Cl)c(-c2ccc(Cl)cc2)c1C)C(=O)NCCOCCNC(=O)OC(C)(C)C [Compound 23a]
Response: f

Query: Check if pKi >= 7 (inclusive). Item: CCC(CC)(NC(=O)c1nn(-c2ccc(Cl)cc2Cl)c2c1CCCc1cc(Cl)ccc1-2)C(=O)NCCOCCOCCNc1ccc([N+](=O)[O-])c2nonc12 [Compound 32]
Response: f

Query: Check if pKi >= 7 (inclusive). Item: CCC(CC)(NC(=O)c1cnc(OCC2CC2)c(-c2ccc(F)cc2)c1)C(=O)NCCOCCOCCNc1ccc([N+](=O)[O-])c2nonc12 [Compound 40]
Response: f

Query: Check if pKi >= 7 (inclusive). Item: CCC(CC)(NC(=O)c1cnc(OCC2CC2)c(-c2ccc(F)cc2)c1)C(=O)NCCOCCOCCNC(=O)OC(C)(C)C [Compound 25]
Response: f

Query: Check if pKi >= 7 (inclusive). Item: CCC(CC)(NC(=O)c1nn(-c2ccc(Cl)cc2Cl)c(-c2ccc(Cl)cc2)c1C)C(=O)NCCOCCOCCNC(=O)OC(C)(C)C [Compound 23b]
Response: f

Query: Check if pKi >= 7 (inclusive). Item: CCC(CC)(NC(=O)c1nn(-c2ccc(Cl)cc2Cl)c2c1CCCc1cc(Cl)ccc1-2)C(=O)NCCOCCOCCNC(=O)OC(C)(C)C [Compound 24]
Response: f

Source: paper PMC11284800
